I'd be grateful if you could share measured Max. Activity (fold over background) for these entries.
# SYSTEM UNDER TEST: Vg9/Vd1 T cell receptor expressed on SKW3 cells (UniProt Q99603)
# Sequence (Q99603 21-122): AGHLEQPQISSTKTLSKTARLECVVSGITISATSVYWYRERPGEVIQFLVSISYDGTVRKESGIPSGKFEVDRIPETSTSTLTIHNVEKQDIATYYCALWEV
# ASSAY NOTES: flow cytometry, dose-response binding at 37 C, SKW3 cells expressing Vg9/Vd1
Please state the value as a number alone, without comment.

Enquiry: Which value of Max. Activity (fold over background) has been reported for VG9B208 (antibody, human IgG1, lambda, V domains shown) VH: QVQLQESGPGLVKPSETLSLTCTVSGGSISGYYWSWIRQPPGKGLELIGYIFYSGSINYNPSLKNRVTISLDTSKNQFSLKLTSVTAADTAVYYCARVGKWELRSSFDIWGQGTMVTVSS VL: QSVLTQPPSVSAAPGQKVTISCSGSTSNIGNNDVSWYQQLPGTAPKLLIYDNNKRPSGIPDRFSGSKSGTSATLGITGLQTGDEADYYCGTWDSSLSVWVFGGGTKLTVLG in the records?
Return: 2.15

Enquiry: Which value of Max. Activity (fold over background) has been reported for VG9B177 (antibody, human IgG1, lambda, V domains shown) VH: QVQLQESGPGLVKPSETLSLTCTVSGGSINNYFWSWIRQPPGKGLEWIGYIFYSGSTNYNPSLKSRVTISIDTSKNQFSLKVNSVTAADTAVYYCARVGKWELRTAFDIWGQGTMVTVSS VL: QSALTQPASVSGSPGQSITISCTGTSSDVADYNYVSWYQQHPGKAPKLMIYEVSNRPSGVSNRFSGSKSGNTASLTISGLQAEDEADYYCCSYTSSFTVVFGGGTKVTVLG in the records?
Return: 1.28

Enquiry: Which value of Max. Activity (fold over background) has been reported for VG9B372 (antibody, human IgG1, kappa, V domains shown) VH: QVQLQESGPGLVKPSQTLSLTCTVSGGSISNGGFYWSWIRQHPGKGLEWLGYINYSGSTYYNPSLESRGTISLDTSKNQFSLKLRSVTAADTAVYYCARDRNYEWNFDLWGRGTLVTVSS VL: EIVMTQSPATLSLSPGEGATLSCRASQSVSSYLAWYQQKPGQAPRLLVYDASNRATGIPARFSGSGSGTAFTLTITSLEPEDFVVYYCQQRSNWPLTFGGGTKLEIKR in the records?
Return: 1.02
